- assay-name: reduction of polyQ htt aggregates in cells – imaging, exon1htt(103Q)mCFP cells, high-content imaging, primary screen (AID 483);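 further: compound exposure lasted 3 days before fixation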
- test-context: exon1htt(103Q)mCFP cell line, aggregate imaging, at 2 µM; stronger effect = higher value

# molecule, inhibition of aggregation [%]
measured = [
    ("CCCn1c(SCC(=O)NC(C)(C)C)nnc1C(C)C", 6.5),
    ("c1ccc(-n2nnnc2OCCOc2nnnn2-c2ccccc2)cc1", 11.5),
    ("Cc1cc(/C=N/n2cnnc2)c(C)n1-c1ccc(Cl)cc1Cl", -10.2),
    ("COC(=O)c1[nH]c2cc(OC)ccc2c1NC(=O)CCN1CCCCC1", -12.7),
    ("CCOc1ccc(S(=O)(=O)n2c(C)nc3ccccc32)cc1", -0.6),
    ("COc1ccc(CCNC(=O)CC2COc3ccccc3O2)cc1OC (centres undefined)", 25),
    ("COCCNC(=O)CCCCCN1C(=O)CCC1=O", -8.5),
    ("COc1cc(C(=O)NCC(=O)OCC(=O)c2ccc[nH]2)cc(OC)c1OC", 10.7),
    ("CC(=O)N1C(=O)N(C)C2C1N(C(C)=O)C(=O)N2C (centres undefined)", 7.3),
    ("Cc1cn(C2CC3OCC3O2)c(=O)[nH]c1=O (centres undefined)", 0.6),
    ("COc1ccc(/C=N/O)cc1COc1ccc(NC(C)=O)cc1", -10.6),
    ("CCOC(=O)N1CCN(Cc2nc3c(c(=O)n(C)c(=O)n3C)n2Cc2ccc(F)cc2)CC1", -1.6),
    ("CC1=C(C(=O)OCCOC(C)C)C(c2cc3c(cc2Br)OCO3)C2=C(CCCC2=O)N1 (centres undefined)", 8.5),
    ("O=C(CSc1nc2ccccc2c(=O)n1Cc1ccco1)NCc1ccccc1", 1.9),
    ("Cc1c(C(=O)O)sc2ncn(C)c(=O)c12", -9),
    ("Cc1nc2ccc(NC(=O)N3CCSCC3)cc2s1", -7.6),
    ("CCOc1ccccc1Nc1nnc(SCC(=O)N2CCCC2)s1", 12.1),
    ("O=c1nc(N2CCCC2)nc(Nc2ccccc2)[nH]1", -12.9),
    ("CCOC(=O)c1c(C)oc2ccc(OCC(=O)N(CC)CC)cc12", -2.3),
    ("O=C(O)CSC1CC(=O)N(c2ccc(Cl)c(Cl)c2)C1=O (centres undefined)", 11.7),
    ("Cc1cccc(NCc2ccccc2O)c1", 1.3),
    ("O=C(NCC(=O)N(CCc1ccccc1)C(C(=O)NC1CCCC1)c1cccnc1)c1ccco1 (centres undefined)", 2.2),
    ("Cc1cc(C)c(C#N)c(SCC(=O)Nc2ccc(S(=O)(=O)Nc3onc(C)c3C)cc2)n1", 3.9),
    ("CCOC(=O)c1cnc(-n2nc(C)cc2C)nc1NC(C)c1ccccc1 (centres undefined)", 8.7),
]

* * *

Measured inhibition of aggregation, listed per entry for reference.
- assay-name: reduction of polyQ htt aggregates in cells – imaging, exon1htt(103Q)mCFP cells, high-content imaging, primary screen (AID 483);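 further: compound exposure lasted 3 days before fixation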
- test-context: exon1htt(103Q)mCFP cell line, aggregate imaging, at 2 µM; stronger effect = higher value
quantity: inhibition of aggregation (%)

# molecule, result-unit, value-measured
records = [
    ("CO/C([O-])=N/c1c[n+](-c2ccc(C)cc2)no1", "%", -9.2),
    ("Cc1ccc(CC2SC(=O)NC2=O)cc1Cl (stereo unspecified)", "%", -3),
    ("CC(=O)Nc1ccc(S(=O)(=O)N2CCN(C(C)CCc3ccccc3)CC2)cc1 (stereo unspecified)", "%", 2.6),
    ("Cc1ccc(F)cc1NC(=O)C1CCCN(c2ncccn2)C1 (stereo unspecified)", "%", -34.5),
    ("CC(=O)c1ccc(OCC(O)CN2CCN(Cc3ccc4c(c3)OCO4)CC2)cc1 (stereo unspecified)", "%", -3.8),
    ("CCc1ccccc1NC(=O)C(C#N)Cc1cccnc1 (stereo unspecified)", "%", 2.2),
    ("COc1ccccc1-n1cnc(N)c1C(C)=O", "%", -12.9),
    ("CC1(C)CC2CC(C)(CN2S(=O)(=O)c2ccc(N)cc2)C1 (stereo unspecified)", "%", 30.3),
    ("COc1ccc(NS(=O)(=O)c2c(C)[nH]c(=O)[nH]c2=O)c(OC)c1", "%", 7.4),
    ("CCOC(=O)C1CCCN(C(=O)Cc2ccc(OC)c(OC)c2)C1 (stereo unspecified)", "%", 2.1),
    ("CCn1cc(C(=O)OCC(=O)OC2CC(C)CCC2C(C)C)c(=O)c2ccc(C)nc21 (stereo unspecified)", "%", 2.5),
]

* * *

- assay-name: inhibitors of TNFa-induced NFkB p65 translocation, primary screen, imaging, HUVEC, MLSMR starter and 10KST1 sets (AID 438);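 further: compound added about 3h40 before a 20 min TNFalpha stimulation; signal is the nuclear over cytoplasmic p65 intensity ratio per well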
- test-context: HUVEC TNFa-induced p65 nuclear translocation; at 2 µM, stronger effect = higher value, 0% TNFa-plus-vehicle, 100% no-TNFa wells
Measured inhibition, listed per entry for reference.

# compound, inhibition, %
measured = [
    ("CCOc1ccc(NC(=O)c2ccncc2)cc1", 3.6),
    ("Cc1c(NC(=O)c2nn(C)c(=O)c3ccccc23)c(=O)n(-c2ccccc2)n1C", 4.2),
    ("Cc1nnc(N(C)C(=O)c2cccnc2)s1", -7.5),
    ("O=C1CC(c2ccsc2)c2cc3c(cc2N1)OCCO3 (configuration not stated)", 0),
    ("C#CCOC(=O)C1C2C=CC(C2)C1C(=O)O (configuration not stated)", 9.9),
    ("CCn1c(C(=O)OC)cc2c1ccn2-c1ccc(F)cc1", -2.6),
    ("Cc1nc(NC2=NCN(CCN3CCOCC3)CN2)nc2c(C)cccc12", 4.5),
    ("CC(=O)NC1(c2nnnn2CCOC(=O)Nc2ccc(Cl)cc2)CCCCC1", -12.5),
    ("Cc1cccc(NC(=O)CC2CCC2)c1", -4.1),
    ("CN(C)c1cccc(NC(=O)CCc2ccccc2)c1", -5.1),
    ("O=C(CSCc1n[nH]c(=O)[nH]1)NCCOc1cccc(Oc2ccccc2)c1", -13),
    ("COc1ccc(N2CCC(CNS(=O)(=O)c3cccc(C(F)(F)F)c3)C2)cc1 (configuration not stated)", 5.3),
    ("O=C(c1cccs1)N(Cc1ccco1)Cc1cc2ccccc2[nH]c1=O", 6.2),
    ("Cc1csc2nc3ccccc3c(=O)n12", 3.9),
    ("Cc1noc(/C=C/N(C)C)c1S(=O)(=O)N1CCCC(C(=O)N2CCCCC2)C1 (configuration not stated)", 9.1),
    ("COc1ccc(NCc2nnc(SCC(=O)Nc3cc(C)cc(C)c3)o2)cc1", -1.1),
    ("COC(=O)c1ccccc1NC(=O)c1cnc2sccn2c1=O", -19.2),
    ("CC(=O)n1nc(-c2ccco2)nc1SCc1ccccc1", 2.8),
    ("COC(=O)CN1C(=O)C(O)(CC(=O)c2ccc(C)cc2)c2cc(Br)ccc21 (configuration not stated)", 2.9),
    ("CC(C)CN1C(=O)c2ccc(C(=O)Nc3nccs3)cc2C1=O", 8.1),
    ("CCOC(=O)N1CCC(NC(=O)Cc2ccc(-n3c(=O)[nH]c4ccccc4c3=O)cc2)CC1", -5.8),
    ("CN(C)C(=O)CSc1nnc2sc3ccccc3n12", -9.2),
    ("CN1CCN(c2ncnc3c2cnn3-c2ccc(Cl)cc2)CC1", -8.5),
    ("Cc1cc(N2CCN(C)CC2)nc(N2CCOCC2)n1", -9.4),
    ("CN(C)c1nc(Oc2ccc(N)cc2)nc(N(C)C)n1", 2.1),
    ("Cn1c(SCc2ccc3c(c2)OCO3)nnc1-c1ccccc1", 9.8),
    ("CCOC(=O)c1c(NC(=O)OC)sc2c1CCC2", -0.5),
    ("CCCCn1c(SCC(=O)NCc2ccccc2)nc2ccc(N3CCOCC3)cc2c1=O", 4.3),
    ("O=C1OCCC1Sc1ncnc2sccc12 (configuration not stated)", -6.8),
    ("N#CCC(=O)Nc1ncn(Cc2ccccc2Cl)n1", -2.5),
    ("O=C(NC1CCCCC1NC(=O)c1ccco1)c1ccco1 (configuration not stated)", 10.2),
    ("COc1ccc(CCN2C(=O)CC(N3CCN(S(=O)(=O)c4ccccc4)CC3)C2=O)cc1 (configuration not stated)", 11.3),
    ("CCN(CC)C(=O)c1sc(NC(=O)c2ccco2)c(C#N)c1C", -1.3),
    ("O=C1CN(C(=O)CN2CCCC2)C(c2ccccc2)c2cc(Br)ccc2N1 (configuration not stated)", -1.2),
    ("COc1ccc(Cl)c(NC(=O)NCCN2CCN(c3ccccc3)CC2)c1", 1.8),
    ("COC(=O)C1CCN(C(=O)CN2C(=O)NC(CCc3ccccc3)C2=O)CC1 (configuration not stated)", -9.6),
    ("CC(=O)NC(C)C(=O)OCC(=O)Nc1ccc(Br)cc1 (configuration not stated)", 6.9),
    ("O=C(c1ccc(Br)cc1)N1CCN(S(=O)(=O)c2ccccc2)CC1", -5.1),
    ("CCC(=O)c1ccc(OCCN2CCOCC2)cc1", -5.3),
    ("O=C(CN1C(=O)NC(Cc2ccccc2)C1=O)Nc1ccccc1 (configuration not stated)", 0),
    ("COc1ccc2c(=O)c3c(=O)n(Cc4ccco4)c(-c4cc(OC)c(OC)c(OC)c4)nc3oc2c1", -9.2),
    ("Cc1ccc2oc(=O)c3cnn(CC(=O)N4CCCCC4C)c3c2c1 (configuration not stated)", 3.9),
    ("CC(C)(C)c1ccc2c(c1)OCC(C(=O)O)O2 (configuration not stated)", 2),
    ("CC(=O)Nc1ccc(S(=O)(=O)N2CCN(C(=O)CCC3CCCC3)CC2)cc1", -0.8),
    ("COCCn1c(=O)[nH]c2cc(C(=O)N3CCN(Cc4ccc5c(c4)OCO5)CC3)ccc2c1=O", -1.6),
    ("Cc1cccn2c(=O)c3cc(C#N)c(=NC(=O)c4cccnc4)n(CC4CCCO4)c3nc12 (configuration not stated)", -2.8),
    ("COc1ccccc1NC(=O)N(Cc1ccccc1)c1ccccn1", 3.2),
]
